Source listed as PubChem BioAssay (Tox21).

- SYSTEM UNDER TEST: Peroxisome proliferator-activated receptor delta (Homo sapiens)
- ASSAY OVERVIEW: qHTS assay to identify small molecule agonists of the peroxisome proliferator-activated receptor delta (PPARd) signaling pathway (AID 743212);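 further: HEK293H cells with PPARd UAS beta-lactamase reporter GeneBLAzer system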
- PROTOCOL CONDITIONS: HEK293H PPARd-UAS-bla, beta-lactamase FRET ratio, 17 h; series mostly up to 62.6 µM
Inconclusive results are not listed. Calls of active or inactive are those of the source. The call rests on the fitted dose curve.
Mark one answer only. Choices: class 1 = active, class 0 = inactive

Would you please look over these solved cases?
{"COMPOUND": "CC(=O)OCC[N+](C)(C)C", "CAT": "class 0"}
{"COMPOUND": "O=C(O)C[C@H](NC(=O)OCc1ccccc1)C(=O)O", "CAT": "class 0"}
{"COMPOUND": "Oc1cccc(Nc2ccccc2)c1", "CAT": "class 0"}
{"COMPOUND": "c1ccc2c(c1)CCc1ccccc1N2", "CAT": "class 0"}
{"COMPOUND": "CCCCCCCCOc1ccc(C(=O)O)cc1", "CAT": "class 1"}
{"COMPOUND": "COc1ccc(OC(=O)N(CC(=O)O)Cc2ccc(OCCc3nc(-c4ccccc4)oc3C)cc2)cc1", "CAT": "class 1"}
{"COMPOUND": "O=C1NC(=O)c2cc([N+](=O)[O-])ccc21", "CAT": "class 0"}
{"COMPOUND": "OCCOCC#CCOCCO", "CAT": "class 0"}
{"COMPOUND": "CN1C(=O)OC(C)(C)C1=O", "CAT": "class 0"}
{"COMPOUND": "C=C/C(C)=C/C/C=C(\\C)CCC=C(C)C", "CAT": "class 0"}

Q) Tell me the recorded outcome of this test for `CC(=O)N/N=C/c1ccc([N+](=O)[O-])o1` .
A) class 0

Q) What classification did `CCCC(=O)C(=O)O` end up with in this test?
A) class 0

Q) Lab log entry: `C=C1C[C@@]23CC[C@H]4[C@@](C)(CCC[C@@]4(C)C(=O)O[C@@H]4O[C@H](CO)[C@@H](O)[C@H](O)[C@H]4O)[C@@H]2CC[C@]1(O[C@@H]1O[C@H](CO)[C@@H](O)[C@H](O[C@@H]2O[C@H](CO)[C@@H](O)[C@H](O)[C@H]2O)[C@H]1O[C@@H]1O[C@H](CO)[C@@H](O)[C@H](O)[C@H]1O)C3` — outcome as called in the assay?
A) class 0

Q) Entry `CS(=O)(=O)c1ccc(-c2cn3ccccc3n2)cc1` : call = ?
A) class 0

Q) # fetch the recorded call for `O=C1c2ccccc2C(=O)N1CCc1noc(-c2ccc(CN3CCCCCC3)s2)n1` here
A) class 0

Q) So what was the verdict on `CC(=O)Nc1cc(S(=O)(=O)O)cc2cc(S(=O)(=O)O)c(N=Nc3ccccc3)c(O)c12` in this test?
A) class 0

Q) Record request — test call for `O=C(OC(=O)c1ccccc1)c1ccccc1`
A) class 0

Q) # outcome recorded in this test, key = CC(CN(C)C)C(C)(O)Cc1ccc(Cl)cc1 (centres undefined)
A) class 0

Q) Hello, I am checking results. What call was entered for `CC(C)=CCC/C(C)=C/CC/C(C)=C/CCC(=O)OC/C=C(\C)CCC=C(C)C` ?
A) class 0

Q) // param item: `C=C(C)C(=O)OCCCCCCCCCCCCC` ; yields the recorded call
A) class 0

Q) Please share the test call associated with `O=C(Nc1cccc2c(=O)cc(-c3nn[nH]n3)oc12)c1ccc(OCCCCc2ccccc2)cc1` .
A) class 0
